Values from the RNAGym collection of RNA variant scans (doi:10.1073/pnas.2313332121)

B1: TPR t1 (parent)
chain: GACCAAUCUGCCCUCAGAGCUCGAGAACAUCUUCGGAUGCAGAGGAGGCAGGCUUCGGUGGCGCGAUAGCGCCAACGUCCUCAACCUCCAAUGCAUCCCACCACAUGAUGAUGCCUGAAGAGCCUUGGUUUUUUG

- Variants of: B1
- Test Summary: polymerase ribozyme fitness, log enrichment relative to wild type (log ratio); higher = more active; in vitro selection for triplet polymerase activity
Value Kind: polymerase ribozyme fitness (log ratio)
A bare number is all that is needed in reply.

Lookup: Dear colleague, I am looking for the recorded polymerase ribozyme fitness (log ratio) of the following variant: GACCAAUUUGCCCUCAGAGCUCGAGAACAUCUUCGGAUGCAGAGGAGGCAGGCUUCGGGGGCGCGAUAGCGCCAUCGUCCGCAACCUCCAAUGCAUCCCACCACAUGAUGAUGCCUGAAGAGCUUUGGUUUUUUG
Found: -2.31

Lookup: Now the same for GACCAAUCUACCCUAAGAGCUCGAGAACAUCUUCGGAUGCAGAUGAGGCAGGCUUUGGUGGCGCGAUAGCGCCGACGUCCUCAACCUCCAAUGCAUCCCACCACAUGAUGAUGCCUGAAGAGCCUUGGUUUUUUG
Found: -3.61

Lookup: Proceed to GACGAAUCUACCCUCAGAGCUCGAGAACAUCUUCGGAUGCAGAGGAGGCAGGCUUCGGUGGCGCGAUAGCGCCAACGUCCUCAACCUCCAAUGCAUCCCACCACAUGAUGAUGCCUGAAGAGCCUUGGUUUUUUG
Found: -1.4

Lookup: // query: GACCAAUCUGCGCUCAGAGCUCGAGAACAUCUUCGGAUGCAGAGGAGGCAGGCUUCGGUAGCGCGAUAGCGCCAACGUCCUCAACCUCCAAUGCAUCCCACCACAUGAUGAUGCGUGAAGAGCCUUGGUUUUUUG
Found: -4.95

Lookup: Also, GACCAAUCUGCCCUCAGAGCUCGAGAACAUCUUCGGAUGCAGAGGAGGCAGGCUUCGGUGGCGCGAUAUCGCCAACGUCCUCAACCUCCAAUGCAUCCCACCACAUGAUGAUGCCUGAAGAGCCUUGGUGUUUUG please.
Found: 0.642

Lookup: Moving on to the next variant: GACCAAUCUGCCCUCAGAGCUCGGGAACAUCUUCGGAUGCAGAGGAGGCAGGCUUCGGUGGCGCGAUAGCCCCAACGUCCUCAACCUCCAAUGCAUCCCACCACAUGAUGAUGCCUGAAUAGCCUUGGUUUUUUG
Found: -2.78

Lookup: Then this variant: GACCAAUCUGCCCUCAGAGCUCGAGAACAUCUUCGGAUGCAGAGGAGGCAUGCUUCGGUGGCGCGAUAUCGCCAACGUCCUCAACCUACAAUGCAUCCCACCAUAUGAUGAUGCCUGAAGAGUCUUGGUUUUUUG
Found: -0.711

Lookup: And GACCAAUCUGCCCUCAGAGCUCGAGAACAUCUUCGGAUGCAGUGGAGGCAGGCUUCGGUGGCGCGAUAGCGCCAACCAUCUCAACCUCCAAUGCAUCCCACCACAUGAUGAUGCCUGAAUAGCCUUGGUUCUUUG ?
Found: -1.51

Lookup: Next variant up: GACCAAUCUGCCCUCAGAGCUCGAGAACAUCUUCGGAUGCAGAGGAGGCAGGCUUCGGGGGCGCGAUAGCGCCAACGUCCUCAACCUCCGAUGCAUUCCACCACAUGAUGCUGCCUGAAGAGCCUUGGUUUUUUG
Found: 0.601

Lookup: Can you check GACCAAUCUGCCCUCAGAGCUCGAGAACAUCUUCGGAUGCAGAGGUGGCAGGCUUCGGUGGCGCGAUAGCGCCCACGUCCUCAACCUCCAAUGCAACCCACCACAUGAUGAUGCCUGAAGAGCCUUGGUUUUUUG next?
Found: -1.66

Lookup: Do the same for GACCAAUCUGCUCUCAGAGCUCGAGAACAUCUUCGGAUGCAGAGCAGGCAGGCUUCGGUGGCGCGAUAGCGCCAACGUCCUCAACCUCCAAUGCAUCCCACAACAUGAUGAUGCCUGAAGAGCCUUGGUUUUUUG please
Found: -2.34
